Listing: protein stability index of selected variants
B1: OAS1 (parent)
chain: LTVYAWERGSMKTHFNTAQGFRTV

- Variants of: B1
- METHOD SUMMARY: protein stability index of a GFP-peptide fusion (GPS, HEK-293T) (PSI 1-6); higher = more stable;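 also: lentivirally expressed fusions sorted by FACS into six bins by GFP to DsRed ratio, PSI derived from sequencing read proportions per bin multiplied by bin number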
- SETTINGS: c terminus: a fixed tail appended
Number only, please.

M11D
2.21
T2P
1.93
T13C
1.13
K12P
5.14
T17M
1.74

GET /value?item= M11L &field=protein stability index returns 1.51

variant A5K , protein stability index observed: 1.63

// protein stability index lookup, variant = S10Q , result: 1.99
